# Test system: Macrophage migration inhibitory factor (Homo sapiens) (UniProt P14174)
# Assay procedure: Inhibition of recombinant His-tagged MIF tautomerase activity (unknown origin) at 25 uM using 4-HPP as substrate relative to control
Endpoint: inhibition (%)

1. Cc1ccc2c(c1)C1CC(=O)N(CCc3cccs3)C(=O)C1=C(N)O2 (stereo unspecified) | 10
2. C=CCN1C(=O)CC2C(=C(N)Oc3cc(OCc4ccc(Cl)cc4)ccc32)C1=O (stereo unspecified) | 10
3. CCOc1ccc2c(c1)OC(N)=C1C(=O)N(CCCN3CCOCC3)C(=O)CC12 (stereo unspecified) | 0
4. Cc1ccc2c(c1)C1CC(=O)N(CC(C)C)C(=O)C1=C(N)O2 (stereo unspecified) | 0
5. CCOc1ccc2c(c1)OC(N)=C1C(=O)N(CCc3ccc(Cl)cc3Cl)C(=O)CC12 (stereo unspecified) | 30
6. NC1=C2C(=O)N(Cc3ccc(N)cc3)C(=O)CC2c2ccccc2O1 (stereo unspecified) | 0

----------
# Test system: Macrophage migration inhibitory factor (Homo sapiens, UniProt P14174)
# Sequence (P14174 whole entry): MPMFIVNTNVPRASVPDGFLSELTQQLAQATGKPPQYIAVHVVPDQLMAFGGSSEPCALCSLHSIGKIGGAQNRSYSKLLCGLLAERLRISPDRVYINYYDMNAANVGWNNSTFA
# Assay procedure: Inhibition of recombinant His-tagged MIF tautomerase activity (unknown origin) using 4-HPP as substrate pretreated for 2 mins followed by substrate addition
Endpoint: IC50 (µM)

1. CCCCCCCCCCCCN1C(=O)CC2C(=C(N)Oc3ccccc32)C1=O (stereo unspecified) | 13.5

----------
# Test system: Macrophage migration inhibitory factor (Homo sapiens) (UniProt P14174)
# Sequence (whole entry): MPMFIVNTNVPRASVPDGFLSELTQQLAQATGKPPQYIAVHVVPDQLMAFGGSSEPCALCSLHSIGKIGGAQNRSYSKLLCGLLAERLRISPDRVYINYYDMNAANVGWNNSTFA
# Assay procedure: Inhibition of recombinant His-tagged MIF tautomerase activity (unknown origin) at 25 uM using 4-HPP as substrate relative to control
This section presents compounds with their documented inhibition values.
Endpoint: inhibition (%)

1. NC1=C2C(=O)N(CCc3c[nH]c4ccccc34)C(=O)CC2c2ccc(OCc3ccc(Cl)cc3)cc2O1 (stereo unspecified) | 70
2. COc1ccc2c(c1)OC(N)=C1C(=O)N(Cc3ccc(N)cc3)C(=O)CC12 (stereo unspecified) | 0
3. Cc1ccc2c(c1)OC(N)=C1C(=O)N(CCCN(C)C)C(=O)CC12 (stereo unspecified) | 0
4. CCCCCCCCCCCCN1C(=O)CC2C(=C(N)Oc3ccc(C)cc32)C1=O (stereo unspecified) | 50
5. NC1=C2C(=O)N(CCO)C(=O)CC2c2ccccc2O1 (stereo unspecified) | 0
6. COCCN1C(=O)CC2C(=C(N)Oc3cc(C)ccc32)C1=O (stereo unspecified) | 0
7. COc1ccc2c(c1)OC(N)=C1C(=O)N(CCCN(C)C)C(=O)CC12 (stereo unspecified) | 0
8. NC1=C2C(=O)N(Cc3ccc(N)cc3)C(=O)CC2c2ccc(OCc3ccc(Cl)cc3)cc2O1 (stereo unspecified) | 45
9. Cc1ccc2c(c1)OC(N)=C1C(=O)N(CCc3c[nH]c4ccccc34)C(=O)CC12 (stereo unspecified) | 55
10. NC1=C2C(=O)N(CCc3c[nH]c4ccccc34)C(=O)CC2c2ccccc2O1 (stereo unspecified) | 15
11. CCN(CC)CCCN1C(=O)CC2C(=C(N)Oc3ccc(C)cc32)C1=O (stereo unspecified) | 0
12. COc1ccc2c(c1)OC(N)=C1C(=O)N(Cc3ccncc3)C(=O)CC12 (stereo unspecified) | 0
13. COCCCN1C(=O)CC2C(=C(N)Oc3cc(OC)ccc32)C1=O (stereo unspecified) | 0
14. Cc1ccc2c(c1)C1CC(=O)N(CCO)C(=O)C1=C(N)O2 (stereo unspecified) | 0
15. CCOCCN1C(=O)CC2C(=C(N)Oc3cc(OCc4ccc(Cl)cc4)ccc32)C1=O (stereo unspecified) | 10
16. CCOc1ccc2c(c1)OC(N)=C1C(=O)N(Cc3cccc4ccccc34)C(=O)CC12 (stereo unspecified) | 50
17. CCCCCCCCCCCCN1C(=O)CC2C(=C(N)Oc3cc(OCC)ccc32)C1=O (stereo unspecified) | 60
18. C#CCN1C(=O)CC2C(=C(N)Oc3cc(C)ccc32)C1=O (stereo unspecified) | 0
19. Cc1ccc2c(c1)OC(N)=C1C(=O)N(Cc3ccc(N)cc3)C(=O)CC12 (stereo unspecified) | 0
20. NC1=C2C(=O)N(CCc3ccc(Cl)cc3)C(=O)CC2c2ccc(OCc3ccc(Cl)cc3)cc2O1 (stereo unspecified) | 80
21. CCOc1ccc2c(c1)OC(N)=C1C(=O)N(Cc3ccncc3)C(=O)CC12 (stereo unspecified) | 0
22. Cc1ccc2c(c1)C1CC(=O)N(CCN3CCOCC3)C(=O)C1=C(N)O2 (stereo unspecified) | 0
23. Cc1ccc2c(c1)OC(N)=C1C(=O)N(CCc3ccc(Cl)cc3)C(=O)CC12 (stereo unspecified) | 5
24. CCOCCN1C(=O)CC2C(=C(N)Oc3cc(OCC)ccc32)C1=O (stereo unspecified) | 0
25. COc1ccc2c(c1)OC(N)=C1C(=O)N(CCc3cccs3)C(=O)CC12 (stereo unspecified) | 15
26. Cc1ccc2c(c1)OC(N)=C1C(=O)N(Cc3cccc4ccccc34)C(=O)CC12 (stereo unspecified) | 35
27. COc1ccc2c(c1)OC(N)=C1C(=O)N(Cc3cccc4ccccc34)C(=O)CC12 (stereo unspecified) | 25
28. CCCCCCCCCCCCN1C(=O)CC2C(=C(N)Oc3ccccc32)C1=O (stereo unspecified) | 60
29. COc1ccc2c(c1)OC(N)=C1C(=O)N(CC(C)C)C(=O)CC12 (stereo unspecified) | 15
30. CCOc1ccc2c(c1)OC(N)=C1C(=O)N(CC(C)C)C(=O)CC12 (stereo unspecified) | 10
31. Cc1ccc2c(c1)OC(N)=C1C(=O)N(Cc3ccncc3)C(=O)CC12 (stereo unspecified) | 0
32. C#CCN1C(=O)CC2C(=C(N)Oc3cc(OC)ccc32)C1=O (stereo unspecified) | 0
33. COc1ccc2c(c1)OC(N)=C1C(=O)N(CCCN3CCOCC3)C(=O)CC12 (stereo unspecified) | 0
34. COc1ccc2c(c1)OC(N)=C1C(=O)N(CCO)C(=O)CC12 (stereo unspecified) | 0
35. Cc1ccc2c(c1)OC(N)=C1C(=O)N(CCc3ccc(Cl)cc3Cl)C(=O)CC12 (stereo unspecified) | 20
36. CCCCCCCCCCCCN1C(=O)CC2C(=C(N)Oc3cc(OCc4ccc(Cl)cc4)ccc32)C1=O (stereo unspecified) | 80
37. CCOc1ccc2c(c1)OC(N)=C1C(=O)N(Cc3ccc(N)cc3)C(=O)CC12 (stereo unspecified) | 0
38. COc1ccc2c(c1)OC(N)=C1C(=O)N(Cc3ccco3)C(=O)CC12 (stereo unspecified) | 0
39. CCOc1ccc2c(c1)OC(N)=C1C(=O)N(Cc3cccnc3)C(=O)CC12 (stereo unspecified) | 10
40. NC1=C2C(=O)N(Cc3ccncc3)C(=O)CC2c2ccc(OCc3ccc(Cl)cc3)cc2O1 (stereo unspecified) | 15
41. CCOc1ccc2c(c1)OC(N)=C1C(=O)N(CCc3c[nH]c4ccccc34)C(=O)CC12 (stereo unspecified) | 10

----------
# Test system: Macrophage migration inhibitory factor (Homo sapiens)
# Assay procedure: Inhibition of recombinant His-tagged MIF tautomerase activity (unknown origin) at 25 uM using 4-HPP as substrate relative to control
Endpoint: inhibition (%)

1) Cc1ccc2c(c1)C1CC(=O)N(CCc3ccc(Cl)cc3Cl)C(=O)C1=C(N)O2 (stereo not given) | 20
2) NC1=C2C(=O)N(CCc3ccc(Cl)cc3)C(=O)CC2c2ccccc2O1 (stereo not given) | 15
3) Cc1ccc2c(c1)C1CC(=O)N(Cc3ccc(N)cc3)C(=O)C1=C(N)O2 (stereo not given) | 10
4) Cc1ccc2c(c1)C1CC(=O)N(Cc3cccnc3)C(=O)C1=C(N)O2 (stereo not given) | 0
5) Cc1ccc2c(c1)C1CC(=O)N(Cc3ccco3)C(=O)C1=C(N)O2 (stereo not given) | 15
6) NC1=C2C(=O)N(Cc3ccco3)C(=O)CC2c2ccccc2O1 (stereo not given) | 0
7) CC(C)CN1C(=O)CC2C(=C(N)Oc3cc(OCc4ccc(Cl)cc4)ccc32)C1=O (stereo not given) | 40
8) Cc1ccc2c(c1)C1CC(=O)N(CCc3c[nH]c4ccccc34)C(=O)C1=C(N)O2 (stereo not given) | 25
9) Cc1ccc2c(c1)C1CC(=O)N(Cc3ccncc3)C(=O)C1=C(N)O2 (stereo not given) | 0
10) COc1ccc2c(c1)OC(N)=C1C(=O)N(Cc3cccnc3)C(=O)CC12 (stereo not given) | 0

----------
# Test system: UniProt P14174
# Assay procedure: Inhibition of recombinant His-tagged MIF tautomerase activity (unknown origin) using 4-HPP as substrate
Assign labels as follows, please: rule met for IC50 below 20 µM; rule not met for IC50 equal to or exceeding 20 µM.

1) CCCCCCCCCCCCN1C(=O)CC2C(=C(N)Oc3ccccc32)C1=O (stereo unspecified) | rule met
2) Cc1ccc2c(c1)OC(N)=C1C(=O)N(CCc3c[nH]c4ccccc34)C(=O)CC12 (stereo unspecified) | rule met
3) CCCCCCCCCCCCN1C(=O)CC2C(=C(N)Oc3cc(OCc4ccc(Cl)cc4)ccc32)C1=O (stereo unspecified) | rule met
4) NC1=C2C(=O)N(CCc3c[nH]c4ccccc34)C(=O)CC2c2ccc(OCc3ccc(Cl)cc3)cc2O1 (stereo unspecified) | rule met
5) CCCCCCCCCCCCN1C(=O)CC2C(=C(N)Oc3cc(OCC)ccc32)C1=O (stereo unspecified) | rule not met
6) NC1=C2C(=O)N(CCc3ccc(Cl)cc3)C(=O)CC2c2ccc(OCc3ccc(Cl)cc3)cc2O1 (stereo unspecified) | rule met
